# EC50 listing for each entry below
- System: H1975 cells
- procedure details: Cytotoxicity assay (PrestoBlue cell viability), H1975
- Assay type: cell-based, human
- experimental context: Homo sapiens, NCI-H1975, 48 h
// return numeric value only (unit: nM, not printed)

CCCS(=O)(=O)Cc1nc2c(nc1CS(=O)(=O)CCC)C(=O)c1ccccc1C2=O [VIN6074]    2000

Please turn your attention to the following entry.
What the record says about O=C1c2ccccc2C(=O)c2nc(CS(=O)(=O)c3ccccc3F)c(CS(=O)(=O)c3ccccc3F)nc21 [OVM24] : EC50 is 2000

====

Below: a set of entries, each annotated with reported inhibition at 50 µM.
- experimental system: USP2 full length (USP2^FL) (Homo sapiens)
- Construct: purchased BioSciences 80352
- procedure details: Inhibition of Ub-AMC hydrolysis by USP2 full length
- Assay type: biochemical
- experimental context: 50 μM compound; Ub-AMC at 1 μM; Table 1a
Reply numerically in %, unit not repeated.

The examples below pair each entry with its known result.
CC/C=C/c1nc2c(nc1/C=C/CC)C(=O)c1ccccc1C2=O    94
Cc1ccc(S(=O)(=O)Cc2nc3c(nc2CS(=O)(=O)c2ccc(C)cc2)C(=O)c2ccccc2C3=O)cc1    95

Please fill in: inhibition at 50 µM reported for O=C1c2ccccc2C(=O)c2nc(CS(=O)(=O)c3ccccc3)c(CS(=O)(=O)c3ccccc3)nc21 = 92

Record Cc1cc(C)c(S(=O)(=O)Cc2nc3c(nc2CS(=O)(=O)c2c(C)cc(C)cc2C)C(=O)c2ccccc2C3=O)c(C)c1 , field inhibition at 50 µM: 95

# inhibition at 50 µM of O=C1c2ccccc2C(=O)c2nc(CS(=O)(=O)c3ccc([N+](=O)[O-])cc3)c(CS(=O)(=O)c3ccc([N+](=O)[O-])cc3)nc21 = 93

Looking up O=C1c2ccccc2C(=O)c2nc(CS(=O)(=O)c3ccc(F)cc3)c(CS(=O)(=O)c3ccc(F)cc3)nc21 , I found its inhibition at 50 µM recorded as 98

The molecule O=C1c2ccccc2C(=O)c2nc(CS(=O)(=O)c3cccs3)c(CS(=O)(=O)c3cccs3)nc21 showed inhibition at 50 µM equal to 99

// field: inhibition at 50 µM; key: O=C1c2ccccc2C(=O)c2nc(C=C3CCCC3)c(C=C3CCCC3)nc21 ; value = 98

Form field inhibition at 50 µM, entry O=C1c2ccccc2C(=O)c2nc(CCl)c(CCl)nc21 : 99

====

- System: HEK293 cells
- procedure details: Cytotoxicity assay (PrestoBlue cell viability), HEK293
- Type: cell-based
- experimental context: Homo sapiens, 48 hours treatment
- Method: Messa, Messa DX5, HCT116, HEK-293, PC-3, LNCaP, HCC827 and H1975 cell lines are issued from the American Type Culture Collection (ATCC). […] For cytotoxicity assays, cells were seeded in 96-well microplates 24 hours before the addition of increasing concentrations of each compound in the culture medium. Cell viability was analyzed 48 hours following addition of each compound through the monitoring of mitochondrial […] activity using PrestoBlue® Cell Viability Reagent (Invitrogen; #A-13261). […]
value kind: pEC50
Remember the convention: pEC50 equals -log10 of concentration in molar.

Worked set:
COc1ccc(S(=O)(=O)Cc2nc3c(nc2CS(=O)(=O)c2ccc(OC)c(OC)c2)C(=O)c2ccccc2C3=O)cc1OC    5.60
O=C1c2ccccc2C(=O)c2nc(CS(=O)(=O)c3ccccc3F)c(CS(=O)(=O)c3ccccc3F)nc21    5.60
CCCS(=O)(=O)Cc1nc2c(nc1CS(=O)(=O)CCC)C(=O)c1ccccc1C2=O    5.82

Let us move to another entry and its pEC50.
// recorded pEC50 for CCCCS(=O)(=O)Cc1nc2c(nc1CS(=O)(=O)CCCC)C(=O)c1ccccc1C2=O : 5.85

====

- experimental system: USP8^CD (purified catalytic domain of USP8) (Homo sapiens)
- Construct: the purified catalytic domain of USP8 (USP8^CD, in-house purified); made in house; host or cells: E. coli BL21 Gold
- procedure details: Inhibition of purified USP8^CD enzymatic activity (Ub-AMC or Ub-Rho substrate)
- Format: biochemical
- experimental context: 5 μM compound; Table 1d
Please note: Yes applies when inhibition at 5 µM is 70% or greater, and No applies otherwise.

Answered examples (2):
CCCCCS(=O)(=O)Cc1nc2c(nc1CS(=O)(=O)CCCCC)C(=O)c1ccccc1C2=O    Yes
CS(=O)(=O)Cc1nc2c(nc1CS(C)(=O)=O)C(=O)c1ccccc1C2=O    Yes

Ask: Does inhibition at 5 µM meet or surpass 70% for O=C1c2ccccc2C(=O)c2nc(CS(=O)(=O)c3ccc(F)c(F)c3F)c(CS(=O)(=O)c3ccc(F)c(F)c3F)nc21 ?
Reply: Yes

Ask: In plain terms: is recorded inhibition at 5 µM at least 70% for O=C1c2ccccc2C(=O)c2nc(CS(=O)(=O)c3ccccc3F)c(CS(=O)(=O)c3ccccc3F)nc21 ?
Reply: Yes

====

- experimental system: USP2 full length (USP2^FL) (Homo sapiens, UniProt O75604)
- Construct: purchased BioSciences 80352
- procedure details: Inhibition of Ub-AMC hydrolysis by USP2 full length
- Format: biochemical
- experimental context: 1 μM compound; Ub-AMC at 1 μM; Table 1a
So basically: inhibition at 1 µM at 30% or higher? That is Y. Lower than 30%? That is N.

O=C1c2ccccc2C(=O)c2nc(CS(=O)(=O)c3ccc([N+](=O)[O-])cc3)c(CS(=O)(=O)c3ccc([N+](=O)[O-])cc3)nc21 [PCR7991]    Y
CC/C=C/c1nc2c(nc1/C=C/CC)C(=O)c1ccccc1C2=O [PCR8156]    N
Cc1ccc(S(=O)(=O)Cc2nc3c(nc2CS(=O)(=O)c2ccc(C)cc2)C(=O)c2ccccc2C3=O)cc1 [PCR7985]    Y

Ask: Please check the record O=C1c2ccccc2C(=O)c2nc(CS(=O)(=O)c3cccs3)c(CS(=O)(=O)c3cccs3)nc21 [PCR7997] and state if its inhibition at 1 µM is at or above 30%.
Reply: N

Ask: Does O=C1c2ccccc2C(=O)c2nc(C=C3CCCC3)c(C=C3CCCC3)nc21 [PCR8153] have a reported inhibition at 1 µM of at least 30%?
Reply: N

Ask: hey, is inhibition at 1 µM for this one >= 30%? O=C1c2ccccc2C(=O)c2nc(CS(=O)(=O)c3ccc(F)cc3)c(CS(=O)(=O)c3ccc(F)cc3)nc21 [PCR7993]
Reply: N

Ask: Is inhibition at 1 µM at least 30%? Consider Cc1cc(C)c(S(=O)(=O)Cc2nc3c(nc2CS(=O)(=O)c2c(C)cc(C)cc2C)C(=O)c2ccccc2C3=O)c(C)c1 [PCR7996]
Reply: N

Ask: Can O=C1c2ccccc2C(=O)c2nc(CS(=O)(=O)c3ccccc3)c(CS(=O)(=O)c3ccccc3)nc21 [PCR7986] be said to have inhibition at 1 µM at or above 30%?
Reply: Y

====

- experimental system: UniProt P40818
pIC50: −log10 of the molar value.
value kind: pIC50

Sample CCCCS(=O)(=O)Cc1nc2c(nc1CS(=O)(=O)CCCC)C(=O)c1ccccc1C2=O , system: UniProt P40818. Its pIC50 is > 7.52

====

- experimental system: USP8^CD (purified catalytic domain of USP8) (Homo sapiens, UniProt P40818)
- Construct: the purified catalytic domain of USP8 (USP8^CD, in-house purified); made in house; host or cells: E. coli BL21 Gold
- Sequence (P40818 777-1109 limits assumed): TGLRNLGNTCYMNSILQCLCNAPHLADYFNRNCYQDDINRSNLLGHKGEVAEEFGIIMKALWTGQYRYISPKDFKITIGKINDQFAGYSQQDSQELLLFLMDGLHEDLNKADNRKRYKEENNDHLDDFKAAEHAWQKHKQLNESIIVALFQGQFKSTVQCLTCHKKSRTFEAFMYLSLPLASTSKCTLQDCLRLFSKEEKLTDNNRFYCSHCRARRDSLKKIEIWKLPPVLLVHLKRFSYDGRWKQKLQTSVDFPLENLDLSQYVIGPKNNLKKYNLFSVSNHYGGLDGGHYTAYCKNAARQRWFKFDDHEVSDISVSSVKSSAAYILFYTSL
- procedure details: Inhibition of purified USP8^CD enzymatic activity (Ub-AMC or Ub-Rho substrate)
- Format: biochemical
value kind: pIC50
In simple prose, pIC50 is minus the logarithm base ten of a concentration in moles per litre.

Summary for this compound, CCCCS(=O)(=O)Cc1nc2c(nc1CS(=O)(=O)CCCC)C(=O)c1ccccc1C2=O [PCR6236] : pIC50 is 7.22

====

Reported inhibition at 0.1 µM is given for each of the following molecules.
- experimental system: USP2^CD (purified catalytic domain of USP2) (Homo sapiens)
- Construct: The purified catalytic domain of USP2 (USP2^CD, in-house purified); His; made in house; host or cells: E. coli BL21 Gold
- Sequence (O75604 267-599 limits assumed): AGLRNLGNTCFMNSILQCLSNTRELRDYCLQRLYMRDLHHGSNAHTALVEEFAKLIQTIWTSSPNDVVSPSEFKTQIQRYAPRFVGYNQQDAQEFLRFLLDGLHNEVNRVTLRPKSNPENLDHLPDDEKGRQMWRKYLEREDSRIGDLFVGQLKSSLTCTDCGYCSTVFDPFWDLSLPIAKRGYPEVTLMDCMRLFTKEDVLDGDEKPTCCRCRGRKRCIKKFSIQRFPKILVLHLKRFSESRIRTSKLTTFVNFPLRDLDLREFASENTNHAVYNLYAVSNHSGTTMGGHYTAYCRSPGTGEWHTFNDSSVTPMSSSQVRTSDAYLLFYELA
- procedure details: Inhibition of purified USP2^CD enzymatic activity (Ub-AMC or Ub-Rho substrate)
- Format: biochemical
- experimental context: 0.1 μM compound; Table 1c
Your answer should be a plain number; it is taken to be in %.

Entry under test: O=C1c2ccccc2C(=O)c2nc(CS(=O)(=O)c3cccc(Cl)c3)c(CS(=O)(=O)c3cccc(Cl)c3)nc21 . Its inhibition at 0.1 µM was 3

Summary for this molecule, O=C1c2ccccc2C(=O)c2nc(CS(=O)(=O)c3ccc(F)c(F)c3F)c(CS(=O)(=O)c3ccc(F)c(F)c3F)nc21 : inhibition at 0.1 µM is -22

In plain terms, O=C1c2ccccc2C(=O)c2nc(CS(=O)(=O)c3cccc(F)c3)c(CS(=O)(=O)c3cccc(F)c3)nc21 has a documented inhibition at 0.1 µM of -32

The reported value for CCS(=O)(=O)Cc1nc2c(nc1CS(=O)(=O)CC)C(=O)c1ccccc1C2=O in terms of inhibition at 0.1 µM is -26

Kindly note the recorded inhibition at 0.1 µM for CCCS(=O)(=O)Cc1nc2c(nc1CS(=O)(=O)CCC)C(=O)c1ccccc1C2=O , which is -23

inhibition at 0.1 µM reading for O=C1c2ccccc2C(=O)c2nc(CS(=O)(=O)c3ccc4c(c3)OCCO4)c(CS(=O)(=O)c3ccc4c(c3)OCCO4)nc21 : 13

Reported inhibition at 0.1 µM ( CCCCCS(=O)(=O)Cc1nc2c(nc1CS(=O)(=O)CCCCC)C(=O)c1ccccc1C2=O ) = -13
